Data provenance is patent EP4428121A1.

- SYSTEM TESTED: Human (6-His)Sortilin (Homo sapiens)
- Construct: purchased RnD Systems
- Sequence (Q99523 78-755 limits assumed): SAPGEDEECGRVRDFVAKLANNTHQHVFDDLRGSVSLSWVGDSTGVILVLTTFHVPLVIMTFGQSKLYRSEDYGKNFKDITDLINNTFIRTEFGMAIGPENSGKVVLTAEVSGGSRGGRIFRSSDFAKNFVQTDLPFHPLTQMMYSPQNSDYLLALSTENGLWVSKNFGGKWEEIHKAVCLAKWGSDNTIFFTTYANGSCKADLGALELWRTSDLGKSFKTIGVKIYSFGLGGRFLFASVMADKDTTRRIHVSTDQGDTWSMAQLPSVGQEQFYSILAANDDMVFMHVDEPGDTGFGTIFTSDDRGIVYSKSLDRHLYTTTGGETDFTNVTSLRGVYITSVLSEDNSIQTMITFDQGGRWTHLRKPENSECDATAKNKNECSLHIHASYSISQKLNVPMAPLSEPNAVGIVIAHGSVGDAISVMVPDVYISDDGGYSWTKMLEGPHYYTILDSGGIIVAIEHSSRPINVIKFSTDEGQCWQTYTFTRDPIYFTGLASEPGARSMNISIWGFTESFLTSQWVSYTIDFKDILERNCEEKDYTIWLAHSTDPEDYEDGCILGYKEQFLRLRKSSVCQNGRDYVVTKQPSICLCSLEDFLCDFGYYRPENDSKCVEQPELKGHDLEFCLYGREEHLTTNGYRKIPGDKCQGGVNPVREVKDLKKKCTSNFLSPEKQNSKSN
- PROTOCOL DESCRIPTION: Human Sortilin GCI (Grating-Coupled Interferometry) binding assay
- CONDITIONS USED: Creoptix WAVE-RAPID, single concentration (usually 1 µM, 10 µM or 100 µM), immobilised Human (6-His)Sortilin, 1:1 kinetic binding model
QUANTITY NAME: Kd (µM)
Numeric answer only, unit µM assumed.

What value of Kd on Human (6-His)Sortilin (Homo sapiens) does CC(C)(C)CC[C@H](Nc1cncnc1)C(=O)O [Example 6] have?
4.05

What value of Kd on Human (6-His)Sortilin (Homo sapiens) does CC(C)CC(Nc1ccncc1)c1nnn[nH]1 (racemic) [Example 104] have?
74.2

What value of Kd on Human (6-His)Sortilin (Homo sapiens) does CC(C)(C)CC[C@H](Nc1ncnc2ccccc12)C(=O)O [Example 8] have?
0.116

What value of Kd on Human (6-His)Sortilin (Homo sapiens) does CC(C)(C)CC(Nc1ccccn1)c1nn[nH]n1 (racemic) [Example 61] have?
60

What value of Kd on Human (6-His)Sortilin (Homo sapiens) does CC(C)(C)CC[C@H](Nc1ccncn1)C(=O)O [Example 7] have?
8.28

What value of Kd on Human (6-His)Sortilin (Homo sapiens) does CC(C)(C)CC(Nc1cncnc1)c1nn[nH]n1 (racemic) [Example 50] have?
28

What value of Kd on Human (6-His)Sortilin (Homo sapiens) does CC(C)CC(Nc1cc2ccccc2cn1)c1nn[nH]n1 (racemic) [Example 42] have?
3.17
